Consider the following compounds and their measured melting point readings.

Take a look at these entries with their results.
{"Smiles structure": "O=C(NCC1CCCCCC1)c1cc(-c2cccnc2C(=O)O)ccc1Cl", "melting point": "166 to 168 °C"}
{"Smiles structure": "Cc1ccc(-c2ccccc2C(=O)O)cc1C(=O)NCC1CCCCCC1", "melting point": "188 to 189 °C"}
{"Smiles structure": "O=C(NCC1CCCCCC1)c1cc(-c2ncc(Cl)cc2C(=O)O)ccc1Cl", "melting point": "176 to 179 °C"}
{"Smiles structure": "O=C(NCC1CCCCCC1)c1cc(-c2ccc(Cl)c(C(=O)O)n2)ccc1Cl", "melting point": "189 to 190 °C"}

Requested read-out: melting point. Entry: "O=C(NCCc1ccccc1Cl)c1cc(-c2ccccc2C(=O)O)ccc1Cl" 136 to 140 °C (dec.)

###

Endpoint label: melting point

{"Compound": "O=C(NCCC1CCCCC1)c1cc(-c2ccc(Cl)c(C(=O)O)n2)ccc1Cl [Example 22]", "melting point": "189 to 190 °C"}
{"Compound": "O=C(NCC1CCCCCC1)c1cc(-c2ccccc2C(=O)O)ccc1Cl [Example 6]", "melting point": "201 to 203 °C"}
{"Compound": "CC1(CNC(=O)c2cc(-c3ccccc3C(=O)O)ccc2Cl)CCCCCC1 [Example 13]", "melting point": "180 to 183 °C"}
{"Compound": "O=C(NCCC1CCCCC1)c1cc(-c2ncc(Cl)cc2C(=O)O)ccc1Cl [Example 19]", "melting point": "208 to 211 °C"}

Requested read-out: melting point. Entry: O=C(NCC1(O)CCCCC1)c1cc(-c2ccccc2C(=O)O)ccc1Cl [Example 7] 202 to 204 °C

Requested read-out: melting point. Entry: O=C(NCCC1CCCCC1)c1cc(-c2cccnc2N2CCC(C(=O)O)CC2)ccc1Cl [Example 25] 116 to 120 °C

###

Molecular target: P2X7 receptor (Homo sapiens, UniProt Q99572)
Construct: 200 μl of a suspension of THP-1 cells; endogenous in cells
Sequence (Q99572 whole entry): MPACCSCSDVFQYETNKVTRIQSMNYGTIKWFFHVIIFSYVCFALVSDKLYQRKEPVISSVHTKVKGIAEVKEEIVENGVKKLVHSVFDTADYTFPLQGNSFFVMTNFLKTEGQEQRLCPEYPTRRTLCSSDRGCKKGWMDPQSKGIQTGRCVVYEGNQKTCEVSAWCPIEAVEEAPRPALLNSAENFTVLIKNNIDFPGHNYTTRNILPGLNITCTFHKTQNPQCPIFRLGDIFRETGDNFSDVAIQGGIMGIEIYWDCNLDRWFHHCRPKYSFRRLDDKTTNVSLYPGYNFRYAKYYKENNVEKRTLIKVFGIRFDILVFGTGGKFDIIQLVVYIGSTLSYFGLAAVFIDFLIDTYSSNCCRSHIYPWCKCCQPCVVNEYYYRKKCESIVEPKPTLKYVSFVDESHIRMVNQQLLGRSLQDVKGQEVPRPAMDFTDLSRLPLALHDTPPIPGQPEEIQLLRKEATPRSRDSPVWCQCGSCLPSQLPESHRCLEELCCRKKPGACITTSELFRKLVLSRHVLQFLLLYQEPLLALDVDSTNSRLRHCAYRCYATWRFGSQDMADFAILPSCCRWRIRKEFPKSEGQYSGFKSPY
Experiment: P2X7 receptor antagonist test: bbATP-induced ethidium bromide fluorescence in THP-1 cells
Details: negative logarithm of the concentration of test compound necessary to reduce the bbATP agonist activity by 50%, 10^-5M bbATP solution, 37° C. for one hour
Endpoint label: pIC50
Units for pIC50: none; it is -log10 of a concentration expressed in mol/L.

{"Smiles structure": "O=C(NCC1CCCCCC1)c1cc(-c2cccnc2N2CCC(C(=O)O)CC2)ccc1Cl", "Assay system": "P2X7 receptor (Homo sapiens, UniProt Q99572)", "pIC50": 7.00}

What value of pIC50 on P2X7 receptor (Homo sapiens, UniProt Q99572) does "O=C(NCC1(O)CCCCCC1)c1cc(-c2ccccc2C(=O)O)ccc1Cl" have? 7.20

###

Consider the following compounds and their measured melting point readings.

Take a look at these entries with their results.
{"Compound": "C[C@H](CNC(=O)c1cc(-c2ccccc2C(=O)O)ccc1Cl)c1ccccc1", "melting point": "160 to 162 °C"}
{"Compound": "O=C(NC[C@@H]1CCCCC[C@@H]1O)c1cc(-c2ccccc2C(=O)O)ccc1Cl (relative stereo)", "melting point": "193 to 195 °C"}
{"Compound": "CC1(C)[C@H]2CC[C@@H](CNC(=O)c3cc(-c4ccccc4C(=O)O)ccc3Cl)[C@@H]1C2", "melting point": "170 to 172 °C"}
{"Compound": "Cc1ccc(-c2ccc(Cl)c(C(=O)O)n2)cc1C(=O)NCC1CCCCCC1", "melting point": "177 to 178 °C"}
{"Compound": "O=C(NCC1(O)CCCCCC1)c1cc(-c2cccnc2N2CCC(C(=O)O)CC2)ccc1Cl", "melting point": "117 to 119 °C"}

Requested read-out: melting point. Entry: "O=C(NCC1CCCCC1)c1cc(-c2ccccc2C(=O)O)ccc1Cl" 212 to 214 °C

Requested read-out: melting point. Entry: "C[C@@H](NC(=O)c1cc(-c2ccccc2C(=O)O)ccc1Cl)C1CCCCC1" 139 to 141 °C

Requested read-out: melting point. Entry: "O=C(NCC1(O)CCCCCC1)c1cc(-c2ccc(Cl)c(C(=O)O)n2)ccc1Cl" 146 to 149 °C

Requested read-out: melting point. Entry: "O=C(NCC1(O)CCCCCC1)c1cc(-c2ncc(Cl)cc2C(=O)O)ccc1Cl" 201 to 204 °C
